test: Half life in human liver microsomes; assay type: ADME, microsome
QUANTITY KIND: half-life (min)
Please state the figure in min; there is no need to write the unit.

Fill blank: measured half-life of the molecule `c1cc2ncc(Nc3ccc4cc[nH]c4n3)cc2[nH]1` is ____.
11

###

Provide the reported inhibition of each item.
biological target: UniProt P05067; experiment: Inhibition of HFIP-pretreated amyloid beta (1 to 42 residues) (unknown origin) aggregation at 1:10 protein to compound ratio after 24 hrs by ThT fluorescence assay relative to control; settings: concentration not given here
Sequence (P05067 whole entry, the tested form may be a part): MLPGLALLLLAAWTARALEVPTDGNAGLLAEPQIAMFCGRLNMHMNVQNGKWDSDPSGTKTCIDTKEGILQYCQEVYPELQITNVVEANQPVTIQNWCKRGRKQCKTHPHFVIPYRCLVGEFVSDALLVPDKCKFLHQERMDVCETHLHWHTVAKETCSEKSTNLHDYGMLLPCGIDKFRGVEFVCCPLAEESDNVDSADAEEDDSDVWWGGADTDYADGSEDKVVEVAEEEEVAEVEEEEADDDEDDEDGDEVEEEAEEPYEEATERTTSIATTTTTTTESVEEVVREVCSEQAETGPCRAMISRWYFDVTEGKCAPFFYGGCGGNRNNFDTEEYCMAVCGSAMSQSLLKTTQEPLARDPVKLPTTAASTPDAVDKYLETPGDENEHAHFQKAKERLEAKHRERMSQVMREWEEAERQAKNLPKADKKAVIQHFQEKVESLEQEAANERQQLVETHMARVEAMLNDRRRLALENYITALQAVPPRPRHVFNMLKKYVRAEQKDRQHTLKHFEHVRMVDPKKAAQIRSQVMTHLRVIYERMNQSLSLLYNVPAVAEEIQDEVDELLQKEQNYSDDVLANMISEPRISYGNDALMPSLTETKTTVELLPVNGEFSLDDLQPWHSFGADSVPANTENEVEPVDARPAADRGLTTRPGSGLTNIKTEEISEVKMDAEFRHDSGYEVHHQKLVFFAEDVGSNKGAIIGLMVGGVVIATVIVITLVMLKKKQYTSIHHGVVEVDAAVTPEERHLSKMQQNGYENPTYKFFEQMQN

Under UniProt P05067: inhibition value of `c1cc2c(C3CCNCC3)c[nH]c2cc1Nc1ccc2[nH]cc(C3CCNCC3)c2c1` ?
> 90%

Hello, I am looking for reported inhibition with UniProt P05067 for `CN1CCC(c2c[nH]c3cc(Nc4ccc5c(C6CCN(C)CC6)c[nH]c5c4)ccc23)CC1` . Could you help?
> 90%

Give inhibition (UniProt P05067) of the following molecule: `CN1CCC(c2c[nH]c3cc(Nc4ccc5[nH]cc(C6CCN(C)CC6)c5c4)ccc23)CC1`
> 90%

For UniProt P05067, provide inhibition of `Fc1ccc(Nc2ccc3c(C4CCNCC4)c[nH]c3n2)cc1F` please.
81 to 93%

Please state recorded inhibition (tested on UniProt P05067) of `N#Cc1c[nH]c2nc(Nc3ccc4c(C5CCNCC5)c[nH]c4c3)ccc12`
> 90%
